Reported IC50 by item:
# TEST_SYSTEM: UniProt P35354
# Sequence (P35354 18-604): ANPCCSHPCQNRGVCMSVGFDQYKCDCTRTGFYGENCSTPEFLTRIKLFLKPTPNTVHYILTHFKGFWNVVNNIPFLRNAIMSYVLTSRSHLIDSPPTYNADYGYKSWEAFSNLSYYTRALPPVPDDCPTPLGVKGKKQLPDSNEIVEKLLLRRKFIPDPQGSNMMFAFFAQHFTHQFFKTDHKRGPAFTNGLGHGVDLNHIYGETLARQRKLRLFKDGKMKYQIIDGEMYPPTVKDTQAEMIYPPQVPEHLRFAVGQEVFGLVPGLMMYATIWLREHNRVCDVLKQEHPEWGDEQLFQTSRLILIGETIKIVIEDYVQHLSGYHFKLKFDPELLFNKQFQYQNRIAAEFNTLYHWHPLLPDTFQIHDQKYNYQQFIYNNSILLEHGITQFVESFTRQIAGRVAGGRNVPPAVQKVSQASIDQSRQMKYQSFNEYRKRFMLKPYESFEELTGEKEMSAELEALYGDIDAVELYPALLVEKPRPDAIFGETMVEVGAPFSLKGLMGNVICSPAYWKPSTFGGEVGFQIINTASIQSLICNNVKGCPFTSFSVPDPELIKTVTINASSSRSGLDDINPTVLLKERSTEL
# EXPERIMENTAL_PROTOCOL: Human whole blood assay, COX-2 (LPS-induced PGE2 production)
# Assay type: cell-based
# Parameters: endogenous in cells; host or cells: fresh heparinized human whole blood from volunteers, induced with LPS
# MEASUREMENT_CONTEXT: Table IV; human whole blood, LPS, 24 hours; read-out: COX-2(IC50, µM) HWB
# Source text: As well, platelets in whole blood contain a large amount of the COX-1 enzyme. Immediately following blood clotting, platelets are activated through a thrombin-mediated mechanism. […] Therefore, the degree of selectivity by the test compound can be determined by measuring the levels of PGE2 after LPS induction (COX-2) and TxB2 following blood clotting (COX-1) in the same assay. A. COX-2 (LPS-induced PGE2 production) […]
API: value field is a number in µM; no unit string.

compound="CC[C@@]1(C)OC(=O)C(Oc2ccc(Cl)cc2)=C1c1ccc(S(C)(=O)=O)cc1 [Example 118]" experimental_endpoint=IC50 unit_label=µM numeric_value=0.05

Here CC1(C)OC(=O)C(OC2Cc3ccccc3C2)=C1c1ccc(S(C)(=O)=O)cc1 [Example 176] was tested on UniProt P35354, and its IC50 came to 0.08

Measured on UniProt P35354, CC1(C)OC(=O)C(Sc2ccc(Cl)cn2)=C1c1ccc(S(C)(=O)=O)cc1 [Example 45] has a documented IC50 of 1.8

Form field, IC50 with UniProt P35354, item CC1(C)OC(=O)C(OC2CCc3ccccc32)=C1c1ccc(S(C)(=O)=O)cc1 (stereo not drawn) [Example 175] : 2.3

###

A collection of molecules and their measured IC50
# TEST_SYSTEM: COX-2 (Homo sapiens, UniProt P35354)
# Sequence (P35354 18-604): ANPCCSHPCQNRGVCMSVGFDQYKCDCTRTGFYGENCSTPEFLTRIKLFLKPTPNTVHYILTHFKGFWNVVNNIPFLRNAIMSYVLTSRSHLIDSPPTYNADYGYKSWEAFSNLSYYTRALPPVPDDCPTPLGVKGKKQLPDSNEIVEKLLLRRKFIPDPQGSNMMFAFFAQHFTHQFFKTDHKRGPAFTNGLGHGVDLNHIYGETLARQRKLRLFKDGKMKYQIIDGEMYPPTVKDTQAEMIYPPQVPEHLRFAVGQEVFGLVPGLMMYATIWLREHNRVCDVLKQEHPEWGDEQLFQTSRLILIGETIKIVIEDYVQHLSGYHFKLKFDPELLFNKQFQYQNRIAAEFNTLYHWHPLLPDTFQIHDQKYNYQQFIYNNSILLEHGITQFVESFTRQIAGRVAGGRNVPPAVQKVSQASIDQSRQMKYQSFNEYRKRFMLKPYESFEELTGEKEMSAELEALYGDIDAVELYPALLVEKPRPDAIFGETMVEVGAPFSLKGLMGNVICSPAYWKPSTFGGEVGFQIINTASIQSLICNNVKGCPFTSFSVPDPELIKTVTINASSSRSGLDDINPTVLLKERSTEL
# EXPERIMENTAL_PROTOCOL: Human whole blood assay, COX-2 (LPS-induced PGE2 production)
# Type: cell-based
# Set-up: endogenous in cells; host or cells: fresh heparinized human whole blood from volunteers, induced with LPS
# MEASUREMENT_CONTEXT: Table IV; human whole blood, LPS, 24 hours; read-out: COX-2(IC50, µM) HWB

The following molecules have reported results that may help.
molecule="CCCC1(C)OC(=O)C(Oc2ccc(F)cc2)=C1c1ccc(S(C)(=O)=O)cc1 (centres unmarked)" result="< 0.41 µM"
molecule=CC[C@@]1(C)OC(=O)C(Oc2ccc(OC)cc2)=C1c1ccc(S(C)(=O)=O)cc1 result="< 0.41 µM"
molecule=CCC(CC)OC1=C(c2ccc(S(C)(=O)=O)cc2)C(C)(C)OC1=O result="< 0.41 µM"
molecule=COc1ccc(OC2=C(c3ccc(S(C)(=O)=O)cc3)C(C)(C)OC2=O)cn1 result="0.41 µM"

Measured IC50, CS(=O)(=O)c1ccc(C2=C(Oc3ccc(Cl)cn3)C(=O)CC2)cc1 : 0.9 µM

Summary for this molecule, Cc1nc(OC2=C(c3ccc(S(C)(=O)=O)cc3)C(C)(C)OC2=O)ccc1Cl : IC50 is 0.94 µM

Recorded result, Cc1cc(OC2=C(c3ccc(S(C)(=O)=O)cc3)C(C)(C)OC2=O)ncc1F , IC50: 0.38 µM
